Origin of values: patent US20180147161A1

test: Particle size distribution by laser diffraction; format: physicochemical; settings: laser diffraction
Response field label takes Criterion met when Particle size D50 is strictly below 5 μm and Criterion not met in all other cases.

compound | label value
OC[C@@H](O)[C@@H](O)[C@H](O)[C@H](O)CO [Mannitol, D-(+)-Mannitol] | Criterion not met
COc1ccc(C[C@@H](C)NC[C@H](O)c2ccc(O)c(NC=O)c2)cc1.COc1ccc(C[C@@H](C)NC[C@H](O)c2ccc(O)c(NC=O)c2)cc1.O=C(O)/C=C/C(=O)O [Formoterol furmarate, formoterol fumarate] | Criterion not met
COc1ccc(C[C@@H](C)NC[C@H](O)c2ccc(O)c(NC=O)c2)cc1.COc1ccc(C[C@@H](C)NC[C@H](O)c2ccc(O)c(NC=O)c2)cc1.O=C(O)/C=C/C(=O)O [jet milled formoterol fumarate, formoterol fumarate] | Criterion met
C[N+]1(C)[C@@H]2C[C@@H](OC(=O)C(O)(c3cccs3)c3cccs3)C[C@H]1[C@@H]1O[C@@H]12 [Jet milled tiotropium bromide, tiotropium bromide] | Criterion met

* * *

test: Particle size distribution by laser diffraction; assay type: physicochemical; settings: [(D(90)−D(10)]/D(50))
endpoint name: Span

molecule | observed value
O.OC[C@H]1O[C@@H](O[C@H]2[C@H](O)[C@@H](O)C(O)O[C@@H]2CO)[C@H](O)[C@@H](O)[C@H]1O (stereo partly drawn) [Lactose monohydrate, lactose monohydrate] | 2.43
COc1ccc(C[C@@H](C)NC[C@H](O)c2ccc(O)c(NC=O)c2)cc1.COc1ccc(C[C@@H](C)NC[C@H](O)c2ccc(O)c(NC=O)c2)cc1.O=C(O)/C=C/C(=O)O [Formoterol furmarate, formoterol fumarate] | 7.75
COc1ccc(C[C@@H](C)NC[C@H](O)c2ccc(O)c(NC=O)c2)cc1.COc1ccc(C[C@@H](C)NC[C@H](O)c2ccc(O)c(NC=O)c2)cc1.O=C(O)/C=C/C(=O)O [jet milled formoterol fumarate, formoterol fumarate] | 1.96
C[N+]1(C)[C@@H]2C[C@@H](OC(=O)C(O)(c3cccs3)c3cccs3)C[C@H]1[C@@H]1O[C@@H]12 [Tiotropium bromide, tiotropium bromide] | 2.14
C[N+]1(C)[C@@H]2C[C@@H](OC(=O)C(O)(c3cccs3)c3cccs3)C[C@H]1[C@@H]1O[C@@H]12 [Jet milled tiotropium bromide, tiotropium bromide] | 2.0
OC[C@@H](O)[C@@H](O)[C@H](O)[C@H](O)CO [Mannitol, D-(+)-Mannitol] | 1.8

* * *

In this section, each of the compounds is paired with its reported Particle size D90.
experiment: Particle size distribution by laser diffraction; assay type: physicochemical; conditions: laser diffraction

compound | u | Particle size D90
OC[C@@H](O)[C@@H](O)[C@H](O)[C@H](O)CO [Mannitol, D-(+)-Mannitol] | μm | 101.91
C[N+]1(C)[C@@H]2C[C@@H](OC(=O)C(O)(c3cccs3)c3cccs3)C[C@H]1[C@@H]1O[C@@H]12 [Jet milled tiotropium bromide, tiotropium bromide] | μm | 10.39
COc1ccc(C[C@@H](C)NC[C@H](O)c2ccc(O)c(NC=O)c2)cc1.COc1ccc(C[C@@H](C)NC[C@H](O)c2ccc(O)c(NC=O)c2)cc1.O=C(O)/C=C/C(=O)O [jet milled formoterol fumarate, formoterol fumarate] | μm | 10.29
O.OC[C@H]1O[C@@H](O[C@H]2[C@H](O)[C@@H](O)C(O)O[C@@H]2CO)[C@H](O)[C@@H](O)[C@H]1O (stereo partly drawn) [Lactose monohydrate, lactose monohydrate] | μm | 100.9
COc1ccc(C[C@@H](C)NC[C@H](O)c2ccc(O)c(NC=O)c2)cc1.COc1ccc(C[C@@H](C)NC[C@H](O)c2ccc(O)c(NC=O)c2)cc1.O=C(O)/C=C/C(=O)O [Formoterol furmarate, formoterol fumarate] | μm | 49.78
C[N+]1(C)[C@@H]2C[C@@H](OC(=O)C(O)(c3cccs3)c3cccs3)C[C@H]1[C@@H]1O[C@@H]12 [Tiotropium bromide, tiotropium bromide] | μm | 12.11

* * *

assay: BET specific surface area of triple therapy materials; format: physicochemical

molecule | SSA ± SD
C[N+]1(C)[C@@H]2C[C@@H](OC(=O)C(O)(c3cccs3)c3cccs3)C[C@H]1[C@@H]1O[C@@H]12 [Jet milled tiotropium bromide, tiotropium bromide] | 2.86 ± 0.11 m^2/g
C[N+]1(C)[C@@H]2C[C@@H](OC(=O)C(O)(c3cccs3)c3cccs3)C[C@H]1[C@@H]1O[C@@H]12 [Tiotropium bromide, tiotropium bromide] | 2.08 ± 0.13 m^2/g
COc1ccc(C[C@@H](C)NC[C@H](O)c2ccc(O)c(NC=O)c2)cc1.COc1ccc(C[C@@H](C)NC[C@H](O)c2ccc(O)c(NC=O)c2)cc1.O=C(O)/C=C/C(=O)O [Formoterol furmarate, formoterol fumarate] | 2.97 ± 0.05 m^2/g
COc1ccc(C[C@@H](C)NC[C@H](O)c2ccc(O)c(NC=O)c2)cc1.COc1ccc(C[C@@H](C)NC[C@H](O)c2ccc(O)c(NC=O)c2)cc1.O=C(O)/C=C/C(=O)O [jet milled formoterol fumarate, formoterol fumarate] | 5.08 ± 0.26 m^2/g
O.OC[C@H]1O[C@@H](O[C@H]2[C@H](O)[C@@H](O)C(O)O[C@@H]2CO)[C@H](O)[C@@H](O)[C@H]1O (stereo partly drawn) [Lactose monohydrate, lactose monohydrate] | 0.34 ± 0.03 m^2/g
OC[C@@H](O)[C@@H](O)[C@H](O)[C@H](O)CO [Mannitol, D-(+)-Mannitol] | 0.22 ± 0.001 m^2/g

* * *

experiment: Particle size distribution by laser diffraction; type: physicochemical; conditions: laser diffraction
In this section, each of the molecules is paired with its reported Particle size D10.
endpoint name: Particle size D10 (μm)

molecule | endpoint name | observed value
COc1ccc(C[C@@H](C)NC[C@H](O)c2ccc(O)c(NC=O)c2)cc1.COc1ccc(C[C@@H](C)NC[C@H](O)c2ccc(O)c(NC=O)c2)cc1.O=C(O)/C=C/C(=O)O [Formoterol furmarate, formoterol fumarate] | Particle size D10 | 1.16
COc1ccc(C[C@@H](C)NC[C@H](O)c2ccc(O)c(NC=O)c2)cc1.COc1ccc(C[C@@H](C)NC[C@H](O)c2ccc(O)c(NC=O)c2)cc1.O=C(O)/C=C/C(=O)O [jet milled formoterol fumarate, formoterol fumarate] | Particle size D10 | 1.45
C[N+]1(C)[C@@H]2C[C@@H](OC(=O)C(O)(c3cccs3)c3cccs3)C[C@H]1[C@@H]1O[C@@H]12 [Tiotropium bromide, tiotropium bromide] | Particle size D10 | 1.10
OC[C@@H](O)[C@@H](O)[C@H](O)[C@H](O)CO [Mannitol, D-(+)-Mannitol] | Particle size D10 | 6.88
C[N+]1(C)[C@@H]2C[C@@H](OC(=O)C(O)(c3cccs3)c3cccs3)C[C@H]1[C@@H]1O[C@@H]12 [Jet milled tiotropium bromide, tiotropium bromide] | Particle size D10 | 1.09
O.OC[C@H]1O[C@@H](O[C@H]2[C@H](O)[C@@H](O)C(O)O[C@@H]2CO)[C@H](O)[C@@H](O)[C@H]1O (stereo partly drawn) [Lactose monohydrate, lactose monohydrate] | Particle size D10 | 4.13
